# reported SPOT intensity; entries follow
# target or test system: T1, Boi1, P38041
# T1 sequence (P38041 1-86, looked up): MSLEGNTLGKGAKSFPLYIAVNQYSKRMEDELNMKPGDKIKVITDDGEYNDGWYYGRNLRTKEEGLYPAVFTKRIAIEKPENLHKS
# assay: SPOT array
# condition description: median of control spots 1162
Number only, please.

Consider the worked cases shown below.
binder	SPOT intensity
RPPRPPPKPLHLRTE	0
PSRRAPLQLPQLVNK	0
RRGPAPPPPPRASRP	0

Now take the following binder into account.
Lab note: measured SPOT intensity of RPKRRAPPPVPKKPS was 3
